# Target under test: hGPR120 (Homo sapiens, UniProt Q5NUL3)
# Construct: expressed in transfected cells; host or cells: CHO-K1
# Sequence (Q5NUL3 whole entry): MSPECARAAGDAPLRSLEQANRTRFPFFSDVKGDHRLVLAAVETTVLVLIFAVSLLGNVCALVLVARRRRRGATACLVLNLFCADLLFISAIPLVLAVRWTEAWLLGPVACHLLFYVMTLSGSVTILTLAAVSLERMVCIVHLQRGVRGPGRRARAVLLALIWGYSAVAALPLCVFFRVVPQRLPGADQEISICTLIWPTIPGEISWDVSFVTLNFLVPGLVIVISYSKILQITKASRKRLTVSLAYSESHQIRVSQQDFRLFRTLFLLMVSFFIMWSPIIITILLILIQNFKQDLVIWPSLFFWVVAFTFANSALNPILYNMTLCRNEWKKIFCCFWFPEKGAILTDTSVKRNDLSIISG
# Measurement notes: Measurement of Activity of GPR120 Agonist (Cell-Based Assay), Calcium 5 dye fluorescence
# Assay setup: CHO-K1 cells expressing Ga16 and hGPR120
Provide the recorded EC50 for the entries that follow.

Below, each entry is followed by its recorded EC50 result.
> print(dat)
                                   molecule          result
1  CC(CCCC(=O)O)c1c(F)cc(-c2cccnc2OC2CCCC2)cc1F (stereo not drawn)        < 200 nM
2  O=C(O)CC1CCN(c2c(F)cc(-c3csc(OCC4CC4)n3)cc2F)C1 (stereo not drawn)  200 to 2000 nM

# map each molecule to its EC50
1. O=C(O)CCC1CCc2cc(-c3cccnc3OC3CCOCC3)ccc2S1 (stereo not drawn)
2. Cc1cc(OCC2CC2)nc(-c2cc(F)c(OCCCC(=O)O)c(Cl)c2)n1
3. O=C(O)CCCC(F)(F)c1ccc(-c2cccnc2OCC2CC2)cc1

[out]
200 to 2000 nM
< 200 nM
< 200 nM

---

# Target under test: hGPR120 (Homo sapiens, UniProt Q5NUL3)
# Construct: expressed in transfected cells; host or cells: CHO-K1
# Measurement notes: Measurement of Activity of GPR120 Agonist (Cell-Based Assay), Calcium 5 dye fluorescence
# Assay setup: CHO-K1 cells expressing Ga16 and hGPR120
Property name: EC50

> print(dat)
                                        mol    result
1  CN(CCCC(=O)O)c1c(F)cc(-c2cccc(OC3CCC3)n2)cc1F  < 200 nM

Dear colleague, could you please provide EC50 for the molecules listed below?
1. Cc1nc(COCC2CC2)c(-c2cc(F)c(N3CCC(CC(=O)O)CC3)c(F)c2)s1
2. CN(CCCC(=O)O)c1c(F)cc(-c2cccc(OC3CCCC3)n2)cc1F
3. CN(CCCC(=O)O)c1c(F)cc(-c2cccc(OCC3CCC3)n2)cc1F
4. CC(C)Oc1cccc(-c2ccc3cc(CCC(=O)O)ccc3c2)c1

[out]
1: 200 to 2000 nM; 2: < 200 nM; 3: < 200 nM; 4: 200 to 2000 nM

---

# Target under test: hGPR120 (Homo sapiens, UniProt Q5NUL3)
# Measurement notes: Measurement of Activity of GPR120 Agonist (Cell-Based Assay), Calcium 5 dye fluorescence
# Assay setup: CHO-K1 cells expressing Ga16 and hGPR120
# Experimental: CHO-K1 cells expressing Ga16 and hGPR120 were dispensed into each well of a 96-well plate (3×10^4 cells/100 μl/well) and then incubated in 5% CO2, 37° C. incubator for 18 hours. […] Each well was treated with 50 μl of the agonist compounds using Plexstation II, and then fluorescence was measured at Ex 485 nm and Em 525 nm. Fluorescence increased by the serially diluted GPR120 agonists is calculated as a relative percent (%) value based on the fluorescence represented by the treatment of 1% DMSO only. […]
pEC50: −log10 of the molar value.
Property name: pEC50

> print(dat)
                                   compound                       target.under.test        result
1  O=C(O)CCCOc1c(F)cc(-c2ccc(COCC3CC3)s2)cc1F [Example 565]  hGPR120 (Homo sapiens, UniProt Q5NUL3)        > 6.70
2  O=C(O)C1CC1CCNc1c(F)cc(-c2cccnc2SC2CCCC2)cc1F (stereo not drawn) [Example 128]  hGPR120 (Homo sapiens, UniProt Q5NUL3)        > 6.70
3  O=C(O)CC1CCN(c2c(F)cc(-c3cccc(OCC(F)(F)F)n3)cc2F)CC1 [Example 315]  hGPR120 (Homo sapiens, UniProt Q5NUL3)  5.70 to 6.70
4  CN(CCCC(=O)O)c1c(F)cc(-n2ccc3cccc(Cl)c32)cc1F [Example 475]  hGPR120 (Homo sapiens, UniProt Q5NUL3)        > 6.70
5  CCN(CC)c1cncc(-c2cc(F)c(N3CCC(CC(=O)O)C3)c(F)c2)n1 (stereo not drawn) [Example 506]  hGPR120 (Homo sapiens, UniProt Q5NUL3)  5.70 to 6.70

Report pEC50 for each item below.
1. Cc1onc(COCC2CC2)c1-c1cc(F)c(OCCCC(=O)O)c(F)c1 [Example 390]
2. CC1(C)Cc2cccc(-c3cc(F)c(OCCCC(=O)O)c(F)c3)c2O1 [Example 22]
3. O=C(O)CCCC(F)(F)c1ccc(-c2cccnc2OC2CCCC2)cc1 [Example 177]
4. O=C(O)CCCOc1ccc(-c2cccnc2OCC2CC2)cc1F [Example 240]
5. O=C(O)CCC1CCc2cc(-c3cccc(OCC4CC4)c3)ccc2O1 (stereo not drawn) [Example 447]
6. COc1ccc2c(ccn2-c2cc(F)c(OCCCC(=O)O)c(F)c2)c1 [Example 468]
7. COCCCOc1ccnc(-c2cc(F)c(N3CCC(CC(=O)O)CC3)c(F)c2)n1 [Example 600]

[out]
["< 4.70", "> 6.70", "> 6.70", "5.70 to 6.70", "> 6.70", "> 6.70", "5.70 to 6.70"]

Quick one: give me pEC50 for each item below, same order please.
1. O=C(O)CC1CCN(c2c(F)cc(-c3nccc(Oc4cccc(F)c4)n3)cc2F)CC1 [Example 607]
2. O=C(O)C1CC1CNc1ccc(-c2cccnc2SC2CCCC2)cc1 (stereo not drawn) [Example 211]
3. O=C(O)CC1CN(c2c(F)cc(-c3nccc(OCC4CC4)n3)cc2F)C1 [Example 337]

[out]
1: > 6.70; 2: 5.70 to 6.70; 3: > 6.70

// batch mode: one pEC50 value per listed entry
1. O=C(O)CCCCc1c(F)cc(-c2cccc3c2OC(F)(F)O3)cc1F [Example 34]
2. O=C(O)CCc1ccc2cc(-c3cccc(OC4CCC4)n3)ccc2c1 [Example 148]
3. O=C(O)C1CC1COc1c(F)cc(-c2csc(OC3CCC3)n2)cc1F (stereo not drawn) [Example 551]

[out]
> 6.70
5.70 to 6.70
5.70 to 6.70
